- System: Trichophyton rubrum
- methodDescription: Antimicrobial activity against Trichophyton rubrum by broth microdilution method
- Type: functional
I'd appreciate it if you marked entries 1 when MIC80 is lower than 0.2 µg/mL and -1 when it is not.

Completed entries (count: 8):
Cc1ccccc1-c1nnc(SCCCN2CCN(CC(O)(Cn3cncn3)c3ccc(F)cc3F)CC2)o1 (stereo not drawn) | -1
Cc1ccc(-c2nnc(SCCCN3CCN(CC(O)(Cn4cncn4)c4ccc(F)cc4F)CC3)o2)cc1 (stereo not drawn) | -1
OC(CN1CCN(CCCSc2nnc(-c3cccc(Br)c3)o2)CC1)(Cn1cncn1)c1ccc(F)cc1F (stereo not drawn) | -1
OC(CN1CCN(CCCSc2nnc(-c3ccccc3)o2)CC1)(Cn1cncn1)c1ccc(F)cc1F (stereo not drawn) | -1
N#Cc1cccc(-c2nnc(SCCCN3CCN(CC(O)(Cn4cncn4)c4ccc(F)cc4F)CC3)o2)c1 (stereo not drawn) | -1
CC(=O)N1CCN(c2ccc(OCC3COC(Cn4ccnc4)(c4ccc(Cl)cc4Cl)O3)cc2)CC1 (stereo not drawn) | -1
OC(CN1CCN(CCCSc2nnc(-c3cccc(F)c3)o2)CC1)(Cn1cncn1)c1ccc(F)cc1F (stereo not drawn) | 1
OC(CN1CCN(CCCSc2nnc(-c3ccccc3Cl)o2)CC1)(Cn1cncn1)c1ccc(F)cc1F (stereo not drawn) | -1

query: State whether 0.2 µg/mL exceeds MIC80 recorded for OC(CN1CCN(CCCSc2nnc(-c3ccccc3F)o2)CC1)(Cn1cncn1)c1ccc(F)cc1F (stereo not drawn) .
result: 1

query: Follow-up item: OC(Cn1cncn1)(Cn1cncn1)c1ccc(F)cc1F
result: -1

query: Follow-up item: OC(CN1CCNCC1)(Cn1cncn1)c1ccc(F)cc1F (stereo not drawn)
result: -1

query: Follow-up item: N#Cc1ccccc1-c1nnc(SCCCN2CCN(CC(O)(Cn3cncn3)c3ccc(F)cc3F)CC2)o1 (stereo not drawn)
result: -1

query: Follow-up item: O=[N+]([O-])c1ccccc1-c1nnc(SCCCN2CCN(CC(O)(Cn3cncn3)c3ccc(F)cc3F)CC2)o1 (stereo not drawn)
result: -1

query: Follow-up item: Cc1cccc(-c2nnc(SCCCN3CCN(CC(O)(Cn4cncn4)c4ccc(F)cc4F)CC3)o2)c1 (stereo not drawn)
result: -1

query: Follow-up item: CCC(C)n1ncn(-c2ccc(N3CCN(c4ccc(OCC5COC(Cn6cncn6)(c6ccc(Cl)cc6Cl)O5)cc4)CC3)cc2)c1=O (stereo not drawn)
result: -1

query: Follow-up item: COc1cccc(-c2nnc(SCCCN3CCN(CC(O)(Cn4cncn4)c4ccc(F)cc4F)CC3)o2)c1 (stereo not drawn)
result: 1

query: Follow-up item: C[C@@H](c1ncncc1F)[C@](O)(Cn1cncn1)c1ccc(F)cc1F
result: -1

query: Follow-up item: OC(CN1CCN(CCCSc2nnc(-c3ccccc3Br)o2)CC1)(Cn1cncn1)c1ccc(F)cc1F (stereo not drawn)
result: -1
